The origin of these recorded values is paper PMC9247345.

- System: P. falciparum W2 (chloroquine and pyrimethamine resistant)
- ASSAY PROTOCOL: in vitro antimalarial activity against W2
- Assay type: cell-based
- DETAILS: Plasmodium falciparum, W2, read-out: EC50 W2, Table 2, 3-aryl PEQs
REPORTED PROPERTY: EC50 (nM)
Answer with a number only, understood to be in nM.

input: Given the compound O=C1C(O)=C([C@H]2CC[C@H](c3ccc(Cl)cc3)CC2)C(=O)c2ccccc21 [ATO, atovaquone, reference compound] , write its reported EC50.
output: 0.53
